Target Under Test: CK2α (Homo sapiens, UniProt P68400)
Sequence (P68400 whole entry): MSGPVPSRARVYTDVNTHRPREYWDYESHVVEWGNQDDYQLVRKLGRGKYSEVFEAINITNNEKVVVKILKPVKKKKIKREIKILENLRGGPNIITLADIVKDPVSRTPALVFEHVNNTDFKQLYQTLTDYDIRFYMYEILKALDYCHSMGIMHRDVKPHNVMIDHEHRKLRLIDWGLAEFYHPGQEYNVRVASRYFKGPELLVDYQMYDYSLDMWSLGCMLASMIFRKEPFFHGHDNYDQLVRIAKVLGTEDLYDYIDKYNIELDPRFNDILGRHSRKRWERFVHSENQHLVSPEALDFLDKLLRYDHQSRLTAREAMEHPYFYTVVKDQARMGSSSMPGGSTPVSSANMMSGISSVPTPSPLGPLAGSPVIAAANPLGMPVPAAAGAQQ
Assay Overview: biochemical
Run Conditions: read-out: % Inhibition at 500 μM
Is inhibition at 500 µM at least 20%? Then MET. If not, NOT MET.

Smiles Repr: NCCCCNCc1ccc(-c2ccccc2)c(Cl)c1
Target Under Test: CK2α (Homo sapiens, UniProt P68400)
Assigned Class: NOT MET
--
Smiles Repr: CC(=O)NCCCNCc1ccc(-c2ccccc2)c(Cl)c1
Target Under Test: CK2α (Homo sapiens, UniProt P68400)
Assigned Class: MET
--
Smiles Repr: OCCCNCc1ccc(-c2ccccc2)c(Cl)c1
Target Under Test: CK2α (Homo sapiens, UniProt P68400)
Assigned Class: MET
--
Smiles Repr: NC(=O)CCNCc1ccc(-c2ccccc2)c(Cl)c1
Target Under Test: CK2α (Homo sapiens, UniProt P68400)
Assigned Class: NOT MET
--
Smiles Repr: CC(=O)NCCNCc1ccc(-c2ccccc2)c(Cl)c1
Target Under Test: CK2α (Homo sapiens, UniProt P68400)
Assigned Class: NOT MET
--
Smiles Repr: CCCNCc1ccc(-c2ccccc2)c(Cl)c1
Target Under Test: CK2α (Homo sapiens, UniProt P68400)
Assigned Class: MET
--
Smiles Repr: CNCc1ccc(-c2ccccc2)c(Cl)c1
Target Under Test: CK2α (Homo sapiens, UniProt P68400)
Assigned Class: MET
--
Smiles Repr: COC(=O)CC(=O)NCCCNCc1ccc(-c2ccccc2)c(Cl)c1.Cl
Target Under Test: CK2α (Homo sapiens, UniProt P68400)
Assigned Class: MET
--
Smiles Repr: CS(=O)(=O)NCCCNCc1ccc(-c2ccccc2)c(Cl)c1
Target Under Test: CK2α (Homo sapiens, UniProt P68400)
Assigned Class: MET
--
Smiles Repr: CCNCc1ccc(-c2ccccc2)c(Cl)c1
Target Under Test: CK2α (Homo sapiens, UniProt P68400)
Assigned Class: MET
